Every entry's value here was drawn from PubChem BioAssay AID1159580.

The entries below come with measured normalized growth values attached.
# assay-overview: chemical genetic growth profiling, strain panel (AID 1159580);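 also: tested at 20 µM; growth read once vehicle control cultures reached saturation at 30 °C; 1 = growth at the plate median or of vehicle wells; lower values mean less growth of the strain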
# cond: S. cerevisiae deletion strains, growth OD, locus YDR502C, strain sam2, hits give low values
In all, about 5,500 compounds went through this assay and about 2,000 (36%) were called active. Not shown: some 18% with an inconclusive outcome. Some of the results follow.
Hey, just send me the number, nothing else.

| compound | normalized growth |
| --- | --- |
| CN1C2CC3C[C@H]1C(O3)C2O (some centres not stated) | 1.02 |
| CC(C)=CCc1c(O)cc2oc(C)cc(=O)c2c1O | 0.963 |
| CCCCOc1ccc(C(=O)CCN2CCCCC2)cc1 | 0.657 |

Query CCC1(C)CC(=O)NC1=O (configuration not stated) yields normalized growth of 1.01

Query Cc1ccc(C(=O)C(C)CN2CCCCC2)cc1 (configuration not stated) yields normalized growth of 1.01

Query CCC1(c2ccc(N)cc2)CCC(=O)NC1=O (configuration not stated) yields normalized growth of 0.999

Query `CCCCOc1ccc(OCCCN2CCOCC2)cc1` yields normalized growth of 0.872

----------
# assay-overview: chemical genetic growth profiling, strain panel (AID 1159580)
# cond: S. cerevisiae deletion strains, growth OD, locus YNL067W, strain RPL9B
Among all 5,500 compounds or so, about 2,000 (36%) were called active. About 18% were inconclusive and are not listed. Cut-off read from the data, not from the text of the source: active = normalized growth mostly below about 0.91 (no sharp cut-off); inconclusive = no clear call, values can overlap the other calls; inactive = mostly above about 0.92. Some of the results follow.
Tick one outcome: active, inactive

Example entries and their recorded answers appear below.
| compound | classification |
| --- | --- |
| COc1cc2c(cc1OC)C(=O)C(CC1CCN(Cc3ccccc3)CC1)C2 (stereo unspecified) | active |
| N=c1nc(N2CCCCC2)cc(N)n1O | inactive |
| Cc1ccc(C(=O)C(C)CN2CCCCC2)cc1 (stereo unspecified) | inactive |
| C[N+](C)(C)CCOP(=O)([O-])OP(=O)(O)OC[C@H]1OC(n2ccc(N)nc2=O)[C@H](O)[C@@H]1O (stereo partly specified) | inactive |
| CCCCOc1ccc(OCCCN2CCOCC2)cc1 | active |

Attention now turns to another entry.
Prompt: Dear colleague, could you share the recorded outcome for `OCc1ccccc1O[C@@H]1O[C@H](CO)[C@@H](O)[C@H](O)[C@H]1O` when you have a moment?
Completion: inactive

----------
# assay-overview: chemical genetic growth profiling, strain panel (AID 1159580);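 also: tested at 20 µM; growth read once vehicle control cultures reached saturation at 30 °C; 1 = growth at the plate median or of vehicle wells; lower values mean less growth of the strain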
# cond: S. cerevisiae deletion strains, growth OD, locus YKL009W, strain mrt4
The whole screen tested about 5,500 compounds, of which about 2,000 (36%) were called active. Inconclusive results (about 18%) are left out. Cut-off read from the data, not from the text of the source: active = normalized growth mostly below about 0.91 (no sharp cut-off); inconclusive = no clear call, values can overlap the other calls; inactive = mostly above about 0.92. Some of the results follow.
Tick one outcome: 1.0 = active, 0.0 = inactive

Example entries and their recorded answers appear below.
| compound | classification |
| --- | --- |
| COc1cc(OC)c2c(c1)OC(c1ccccc1)CC2=O (configuration not stated) | 0.0 |
| COc1ccc(C(=O)c2ccccc2)c(O)c1 | 1.0 |
| COc1ccc([C@@H]2CC(=O)c3c(O)cc(O)cc3O2)cc1O | 0.0 |
| O=C1CC(c2ccccc2)Oc2ccccc21 (configuration not stated) | 0.0 |
| C[C@@H]1O[C@@H](O[C@H]2[C@@H](Oc3cc(O)c4c(c3)O[C@H](c3ccc(O)cc3)CC4=O)O[C@H](CO)[C@@H](O)[C@@H]2O)[C@H](O)[C@H](O)[C@H]1O | 0.0 |
| O=C(/C=C/C=C/c1ccc2c(c1)OCO2)N1CCCCC1 | 0.0 |

Prompt: Dear colleague, could you share the recorded outcome for `CC[C@@H](CO)NCCN[C@@H](CC)CO` when you have a moment?
Completion: 0.0

Prompt: Dear colleague, could you share the recorded outcome for `O=[N+]([O-])O[C@H]1CO[C@H]2[C@@H]1OC[C@H]2O[N+](=O)[O-]` when you have a moment?
Completion: 0.0

Prompt: Dear colleague, could you share the recorded outcome for `Cc1ccc(O)cc1` when you have a moment?
Completion: 0.0

Prompt: Dear colleague, could you share the recorded outcome for COc1ccc(C2CC(=O)c3ccc(OC)cc3O2)cc1 (configuration not stated) when you have a moment?
Completion: 1.0

Prompt: Dear colleague, could you share the recorded outcome for `Cc1c(O)cc(O)c2c(=O)c(-c3ccc(O)cc3)coc12` when you have a moment?
Completion: 0.0

Prompt: Dear colleague, could you share the recorded outcome for `c1ccc(CN(CC2=NCCN2)c2ccccc2)cc1` when you have a moment?
Completion: 0.0

Prompt: Dear colleague, could you share the recorded outcome for CC(=O)[C@H]1CCC2C3C[C@H](C)C4=CC(=O)CC[C@]4(C)C3[C@@H](O)C[C@@]21C (some centres not stated) when you have a moment?
Completion: 0.0

Prompt: Dear colleague, could you share the recorded outcome for `O=c1ccc2ccccc2o1` when you have a moment?
Completion: 0.0

Prompt: Dear colleague, could you share the recorded outcome for `COc1c(O)cc2oc3cc(O)c(CC=C(C)C)c(O)c3c(=O)c2c1CC=C(C)C` when you have a moment?
Completion: 0.0

Prompt: Dear colleague, could you share the recorded outcome for `C/C=C(/C(=C/C)c1ccc(O)cc1)c1ccc(O)cc1` when you have a moment?
Completion: 1.0

Prompt: Dear colleague, could you share the recorded outcome for `COc1cc(O)c(C(=O)c2ccccc2)cc1O` when you have a moment?
Completion: 0.0

Prompt: Dear colleague, could you share the recorded outcome for CC(=O)O[C@]1(C(C)=O)CCC2C3C[C@H](C)C4=CC(=O)CC[C@]4(C)C3CC[C@@]21C (some centres not stated) when you have a moment?
Completion: 0.0

Prompt: Dear colleague, could you share the recorded outcome for `Cc1cc(=O)c2c(O)cc(O)c(C)c2o1` when you have a moment?
Completion: 0.0

Prompt: Dear colleague, could you share the recorded outcome for NC[C@@H]1O[C@H](O[C@@H]2[C@@H](CO)OC(O[C@@H]3[C@@H](O)[C@H](N)C[C@H](N)[C@H]3OC3O[C@H](CN)[C@@H](O)[C@H](O)[C@H]3N)[C@@H]2O)[C@H](N)[C@@H](O)[C@@H]1O (some centres not stated) when you have a moment?
Completion: 0.0

Prompt: Dear colleague, could you share the recorded outcome for `O=C1C[C@@H](c2ccccc2)Oc2cc(O)cc(O)c21` when you have a moment?
Completion: 1.0

Prompt: Dear colleague, could you share the recorded outcome for `C=CC(C)(C)c1c2c(c(O)c3c(=O)c4ccc(O)c(O)c4oc13)C=CC(C)(C)O2` when you have a moment?
Completion: 0.0

----------
# assay-overview: chemical genetic growth profiling, strain panel (AID 1159580);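 also: tested at 20 µM; growth read once vehicle control cultures reached saturation at 30 °C; 1 = growth at the plate median or of vehicle wells; lower values mean less growth of the strain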
# cond: S. cerevisiae deletion strains, growth OD, locus YPL240C, strain hsp82
Hit rate of the full screen: of about 5,500 compounds, about 2,000 (36%) were called active. About 18% were inconclusive and are not listed. No stated cut-off is given here; in the data, active means normalized growth mostly below about 0.91 (no sharp cut-off); inconclusive means no clear call, values can overlap the other calls; inactive means mostly above about 0.92. The list shows a part of the results.
Tick one outcome: 1 (active), 0 (inactive)

Example entries and their recorded answers appear below.
| compound | classification |
| --- | --- |
| COc1cc2c(cc1OC)C(=O)C(CC1CCN(Cc3ccccc3)CC1)C2 (configuration not stated) | 0 |
| CC(=O)O[C@H]1C(=O)[C@@]2(C)C([C@H](OC(=O)c3ccccc3)[C@]3(O)C[C@H](OC(=O)[C@H](O)[C@@H](NC(=O)c4ccccc4)c4ccccc4)C(C)=C1C3(C)C)[C@]1(OC(C)=O)CO[C@@H]1C[C@@H]2O (some centres not stated) | 0 |
| NC[C@@H]1O[C@H](O[C@@H]2[C@@H](CO)OC(O[C@@H]3[C@@H](O)[C@H](N)C[C@H](N)[C@H]3OC3O[C@H](CN)[C@@H](O)[C@H](O)[C@H]3N)[C@@H]2O)[C@H](N)[C@@H](O)[C@@H]1O (some centres not stated) | 0 |
| CCCCOc1ccc(C(=O)CCN2CCCCC2)cc1 | 0 |
| C1CCc2nnnn2CC1 | 0 |
| COc1c2c(c(CC=C(C)C)c3oc(=O)c(-c4ccc(O)cc4)c(O)c13)OC(C)(C)C=C2 | 1 |

Prompt: Dear colleague, could you share the recorded outcome for CC1(C)C2CC[C@]3(C)C(C(=O)C=C4[C@H]5C[C@@](C)(C(=O)O)CC[C@]5(C)CC[C@]43C)[C@@]2(C)CC[C@@H]1O (some centres not stated) when you have a moment?
Completion: 0

----------
# assay-overview: chemical genetic growth profiling, strain panel (AID 1159580);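 also: tested at 20 µM; growth read once vehicle control cultures reached saturation at 30 °C; 1 = growth at the plate median or of vehicle wells; lower values mean less growth of the strain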
# cond: S. cerevisiae deletion strains, growth OD, locus YER155C, strain BEM2 (second series)
The campaign covered roughly 5,500 compounds. About 2,000 (36%) were called active. Not shown: some 18% with an inconclusive outcome. Rule as the data show it: active = normalized growth mostly below about 0.91 (no sharp cut-off); inconclusive = no clear call, values can overlap the other calls; inactive = mostly above about 0.92. Some of the results follow.
Tick one outcome: True = active, False = inactive

Example entries and their recorded answers appear below.
| molecule | classification |
| --- | --- |
| CC(C)(CO)C(O)C(=O)NCCCO (stereo not drawn) | False |
| CCOC(=O)c1ncn2c1CN(C)C(=O)c1cc(F)ccc1-2 | False |
| O=C(O)c1cc(=O)c2ccc(Cl)cc2[nH]1 | False |

Prompt: Dear colleague, could you share the recorded outcome for CC(=O)O[C@@](C)(CCC=C(C)C)C1CC=C(C)CC1 (stereo partly drawn) when you have a moment?
Completion: False

Prompt: Dear colleague, could you share the recorded outcome for CC1(C)C2CC[C@]3(C)C(C(=O)C=C4[C@@H]5C[C@@](C)(C(=O)O)CC[C@]5(C)CC[C@]43C)[C@@]2(C)CC[C@@H]1O (stereo partly drawn) when you have a moment?
Completion: False
